Sourced from the supplement of paper PMC6555819

System: PPARg DBDmut:RXRa IVT, anti-PPARg (DBD mutation: PPARg1 K132A/R137A, NR concentration 270 nM, RXRa partner concentration 90 nM)
assay_name: PBM binding z-score (relative to random genomic background probes); higher = stronger binding; sequences stand for … in GC…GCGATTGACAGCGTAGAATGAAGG
Attribute: PBM binding z-score
# print the numeric value only

PBM binding z-score reported for this sequence "TACCCTAGGTCATTCAGGGGCCAGTATAGAAAGC" : -0.205

Form: sequence = "TGTCAATGTTCAAAGGTAACGTAAGTATCCACAC" ; PBM binding z-score = 1.27

Noted for "TAGCCTAGGTTATGGGCCAGTATACCACGCGAAC" : its PBM binding z-score reads -0.249
